Assay: Cytotoxicity against BALB/c mouse peritoneal macrophages assessed as survival at 10 ug/ml
Assay type: cell-based, Macrophage
Conditions: read-out: Activity
measure: viability at 10 ug/ml (%)
Numeric answer only, unit % assumed.

IN: Tell me its viability at 10 ug/ml given C[C@H]1CC[C@H]([C@@H](C)[C@H]2CC[C@H]3[C@@H]4CC=C5C[C@@H](N)CC[C@]5(C)[C@H]4CC[C@]23C)NC1 as the entry.
OUT: 0

====

Test: Selectivity index, ratio of IC50 for KB cells to IC50 for chloroquine -sensitive Plasmodium falciparum 2087
Type: toxicity, cell-based
Conditions: human, read-out: Ratio IC50
measure: selectivity ratio
// print number alone

IN: Tell me its selectivity ratio given C[C@H]1CC[C@H]([C@@H](C)[C@H]2CC[C@H]3[C@@H]4CC=C5C[C@@H](N)CC[C@]5(C)[C@H]4CC[C@]23C)NC1 as the entry.
OUT: 2000
